Hey, just so you know, these numbers are from paper PMC10537280.

Molecule	melting point
COc1ccc(C2C([N+](=O)[O-])C3CCCN3C23C(=O)Nc2ccc(Br)cc23)cc1OCc1ccccc1 (stereo not shown)	98 to 100 °C
COc1cccc(C2C([N+](=O)[O-])C3CCCN3C23C(=O)Nc2ccc(Br)cc23)c1 (stereo not shown)	145 to 147 °C
COc1cc(C2C([N+](=O)[O-])C(C)NC23C(=O)Nc2ccc(Br)cc23)ccc1OCc1ccccc1 (stereo not shown)	168 to 170 °C
COc1ccc(OC)c(C2C([N+](=O)[O-])C(C)NC23C(=O)Nc2ccc(Br)cc23)c1 (stereo not shown)	108 to 110 °C
COc1cc(C2C([N+](=O)[O-])C(CC(C)C)NC23C(=O)Nc2ccccc23)ccc1OCc1ccccc1 (stereo not shown)	68 to 70 °C
COc1ccc(C2C([N+](=O)[O-])C3CCCN3C23C(=O)Nc2ccc(Br)cc23)cc1OC (stereo not shown)	195 to 197 °C
COc1ccc(OC)c(C2C([N+](=O)[O-])C(C)NC23C(=O)Nc2ccccc23)c1 (stereo not shown)	150 to 152 °C
COc1cc(C2C([N+](=O)[O-])C3CCCN3C23C(=O)Nc2ccc(Br)cc23)ccc1OCc1ccccc1 (stereo not shown)	95 to 97 °C
COc1ccc(C2C([N+](=O)[O-])C3CCCN3C23C(=O)Nc2ccccc23)cc1OC (stereo not shown)	175 to 177 °C
COc1ccc(C2C([N+](=O)[O-])C(CC(C)C)NC23C(=O)Nc2ccccc23)cc1OC (stereo not shown)	73 to 75 °C
COc1ccc(OC)c(C2C([N+](=O)[O-])C3CCCN3C23C(=O)Nc2ccccc23)c1 (stereo not shown)	174 to 176 °C
COc1cc(C2C([N+](=O)[O-])C(C)NC23C(=O)Nc2ccccc23)ccc1OCc1ccccc1 (stereo not shown)	168 to 170 °C
COc1ccc(C2C([N+](=O)[O-])C(Cc3ccccc3)NC23C(=O)Nc2ccc(Br)cc23)cc1OCc1ccccc1 (stereo not shown)	155 to 157 °C
COc1ccc(OC)c(C2C([N+](=O)[O-])C3CCCN3C23C(=O)Nc2ccc(Br)cc23)c1 (stereo not shown)	190 to 192 °C
COc1ccc(OC)c(C2C([N+](=O)[O-])C(C(C)C)NC23C(=O)Nc2ccccc23)c1 (stereo not shown)	210 to 212 °C
COc1ccc(C2C([N+](=O)[O-])C3CCCN3C23C(=O)Nc2ccccc23)cc1 (stereo not shown)	116 to 118 °C
COc1ccc(C2C([N+](=O)[O-])C(C)NC23C(=O)Nc2ccc(Br)cc23)cc1OC (stereo not shown)	155 to 157 °C
COc1cc(C2C([N+](=O)[O-])C3CCCN3C23C(=O)Nc2ccccc23)ccc1OCc1ccccc1 (stereo not shown)	66 to 68 °C
COc1ccc(OC)c(C2C([N+](=O)[O-])C(CC(C)C)NC23C(=O)Nc2ccc(Br)cc23)c1 (stereo not shown)	142 to 144 °C

----------
# maps each entry to its S.I. Selectivity index lung (IC50 normal cells/IC50 cancer cells)
Test system: human lung A549 cancer cell lines
Assay: MTT cytotoxicity assay, lung cancer A549 cells
Type: cell-based
Conditions: BEAS-2B IC50 / A549 IC50
Outcome Measure: S.I. Selectivity index lung (IC50 normal cells/IC50 cancer cells)

Compound	Value Reported
COc1cccc(C2C([N+](=O)[O-])C3CCCN3C23C(=O)Nc2ccc(Br)cc23)c1 (stereo not shown)	1.50
COc1ccc(OC)c(C2C([N+](=O)[O-])C(CC(C)C)NC23C(=O)Nc2ccc(Br)cc23)c1 (stereo not shown)	0.96
COc1cc(C2C([N+](=O)[O-])C(C)NC23C(=O)Nc2ccc(Br)cc23)ccc1OCc1ccccc1 (stereo not shown)	1.38
C[C@H]1[C@H](OC(=O)CCC(=O)O)O[C@@H]2O[C@@]3(C)CC[C@H]4[C@H](C)CC[C@@H]1[C@@]24OO3 [AS, artesunic acid, reference compound]	0.76

----------
Test system: immortalized lung BEAS-2B normal cell lines
Assay: MTT cytotoxicity assay, normal lung BEAS-2B cells
Assay type: cell-based
Details: Homo sapiens, MTT, 72 h, 0.19–100 μM, normal lung cells, read-out: BEAS-2B Cells IC50
pIC50: −log10 of the molar value.
Outcome Measure: pIC50

Compound	Value Reported
COc1ccc(C2C([N+](=O)[O-])C(C)NC23C(=O)Nc2ccc(Br)cc23)cc1OC (stereo not shown) [Compound 4j]	< 4.00
COc1cc(C2C([N+](=O)[O-])C(CC(C)C)NC23C(=O)Nc2ccccc23)ccc1OCc1ccccc1 (stereo not shown) [Compound 4k]	< 4.00
COc1cc(C2C([N+](=O)[O-])C3CCCN3C23C(=O)Nc2ccccc23)ccc1OCc1ccccc1 (stereo not shown) [Compound 4n]	< 4.00
COc1ccc(OC)c(C2C([N+](=O)[O-])C(C)NC23C(=O)Nc2ccc(Br)cc23)c1 (stereo not shown) [Compound 4e]	< 4.00
COc1cc(C2C([N+](=O)[O-])C(C)NC23C(=O)Nc2ccccc23)ccc1OCc1ccccc1 (stereo not shown) [Compound 4l]	< 4.00
COc1ccc(C2C([N+](=O)[O-])C3CCCN3C23C(=O)Nc2ccc(Br)cc23)cc1OC (stereo not shown) [Compound 4w]	< 4.00
COc1ccc(C2C([N+](=O)[O-])C3CCCN3C23C(=O)Nc2ccccc23)cc1OC (stereo not shown) [Compound 4v]	< 4.00
COc1ccc(OC)c(C2C([N+](=O)[O-])C3CCCN3C23C(=O)Nc2ccc(Br)cc23)c1 (stereo not shown) [Compound 4u]	< 4.00
COc1ccc(C2C([N+](=O)[O-])C(CC(C)C)NC23C(=O)Nc2ccccc23)cc1OC (stereo not shown) [Compound 4h]	< 4.00
COc1cc(C2C([N+](=O)[O-])C3CCCN3C23C(=O)Nc2ccc(Br)cc23)ccc1OCc1ccccc1 (stereo not shown) [Compound 4o]	< 4.00
C[C@@H]1CC[C@H]2[C@@H](C)C(=O)O[C@@H]3O[C@@]4(C)CC[C@@H]1[C@]32OO4 [ART, artemisinin, reference compound]	4.00
COc1ccc(OC)c(C2C([N+](=O)[O-])C(C)NC23C(=O)Nc2ccccc23)c1 (stereo not shown) [Compound 4b]	< 4.00
COc1ccc(OC)c(C2C([N+](=O)[O-])C3CCCN3C23C(=O)Nc2ccccc23)c1 (stereo not shown) [Compound 4s]	< 4.00
C[C@H]1[C@H](OC(=O)CCC(=O)O)O[C@@H]2O[C@@]3(C)CC[C@H]4[C@H](C)CC[C@@H]1[C@@]24OO3 [AS, artesunic acid, reference compound]	5.12
COc1ccc(C2C([N+](=O)[O-])C(CC(C)C)NC23C(=O)Nc2ccc(Br)cc23)cc1OCc1ccccc1 (stereo not shown) [Compound 4f]	< 4.00
COc1ccc(C2C([N+](=O)[O-])C(C)NC23C(=O)Nc2ccccc23)cc1OC (stereo not shown) [Compound 4i]	< 4.00
COc1ccc(C2C([N+](=O)[O-])C3CCCN3C23C(=O)Nc2ccc(Br)cc23)cc1OCc1ccccc1 (stereo not shown) [Compound 4q]	< 4.00
COc1ccc(OC)c(C2C([N+](=O)[O-])C(CC(C)C)NC23C(=O)Nc2ccc(Br)cc23)c1 (stereo not shown) [Compound 4c]	4.48
COc1ccc(C2C([N+](=O)[O-])C3CCCN3C23C(=O)Nc2ccccc23)cc1 (stereo not shown) [Compound 4r]	< 4.00
COc1ccc(OC)c(C2C([N+](=O)[O-])C(C(C)C)NC23C(=O)Nc2ccccc23)c1 (stereo not shown) [Compound 4d]	< 4.00
COc1ccc(OC)c(C2C([N+](=O)[O-])C(CC(C)C)NC23C(=O)Nc2ccccc23)c1 (stereo not shown) [Compound 4a]	< 4.00
COc1cccc(C2C([N+](=O)[O-])C3CCCN3C23C(=O)Nc2ccc(Br)cc23)c1 (stereo not shown) [Compound 4t]	4.17
COc1ccc(C2C([N+](=O)[O-])C3CCCN3C23C(=O)Nc2ccccc23)cc1OCc1ccccc1 (stereo not shown) [Compound 4p]	< 4.00
COc1cc(C2C([N+](=O)[O-])C(C)NC23C(=O)Nc2ccc(Br)cc23)ccc1OCc1ccccc1 (stereo not shown) [Compound 4m]	4.20
COc1ccc(C2C([N+](=O)[O-])C(Cc3ccccc3)NC23C(=O)Nc2ccc(Br)cc23)cc1OCc1ccccc1 (stereo not shown) [Compound 4g]	< 4.00

----------
Test system: immortalized liver LO2 normal cell lines
Test: MTT cytotoxicity assay, normal liver LO2 cells
Assay type: cell-based
Details: Homo sapiens, L02, 72 h, read-out: LO2 Cells IC50
pIC50: −log10 of the molar value.
Outcome Measure: pIC50

Compound	Outcome Measure	Value Reported
CCN(CC)CCCC(C)Nc1ccnc2cc(Cl)ccc12 (stereo not shown) [CQ, chloroquine, reference compound]	pIC50	4.82

----------
Molecule	melting point
COc1ccc(C2C([N+](=O)[O-])C(CC(C)C)NC23C(=O)Nc2ccc(Br)cc23)cc1OCc1ccccc1 (stereo not shown)	95 to 97 °C
COc1ccc(OC)c(C2C([N+](=O)[O-])C(CC(C)C)NC23C(=O)Nc2ccccc23)c1 (stereo not shown)	182 to 184 °C
COc1ccc(C2C([N+](=O)[O-])C3CCCN3C23C(=O)Nc2ccccc23)cc1OCc1ccccc1 (stereo not shown)	83 to 85 °C
COc1ccc(C2C([N+](=O)[O-])C(C)NC23C(=O)Nc2ccccc23)cc1OC (stereo not shown)	165 to 167 °C
